# test_protocol: soluble on expression in E. coli; label from the status in PepcDB or PDB records

{"polymer_sequence": "MGSDKIHHHHHHMWDYDRLFEIIEELVMHHSPSGAEAEINQLLMQRFAALGVEVWCDRADNIIAKIPGKNPDRAMSNDKPLLYERLRQRAYAITAHKDEIGAIVKSLGDEGRVEVRKLGGSFPWVYGEGVVDLLGDRETISGILSFGSRHVSHESPQKVQQEDTTVKWENAWIETKRTTDELEAAGVRPGTRMVIGKHRKHPIRLKDHIASYTLDNKASVAILLALAENLKQPVVDVYLVASAKEEVGAIGALFFTQNQPLDALIALEVCPLSEEYPIKDGESPILLSQDAYGIYDEGLNGQVRQSAKQLDIPVQLTILSQFGSDASIAMKFGHVARAACLAFPTQNTHGYEIAHLGAIANCIDLLKAFCETEF", "soluble on expression in E. coli": "not soluble"}
{"polymer_sequence": "GPGSMERVTYARTGALRSTYAGLPVTKERLVTAAPAKWFPLLTTVPQRVLKSISDSDGVDGSLLGFLPIAFVFEELRKHLSDFTQHAAFLRAVLQWYHQTAGDTLESEIATDKVEIFQPYLPAYRLRVLKEGETVATFNDISRRAVTLMGKDRGINDIPLDHPSCSAQHAALEVNFVHRNSEPFQQRLHTLMQEEYRNINWSSPDEVGKLCAHALQLMREFGGDEDMWLMELQVVDLGSTNGTNLNGELLRPLERATVIEGDVLTFGYSTRKYLIVRA", "soluble on expression in E. coli": "soluble"}
{"polymer_sequence": "MSATETKYVPRLYKKYKEEVVPILQKKFNYKSPMQIPRLQKIVVNMGVGEAVQDIRQLERAVEDLRAITGQQPVITRARKSEAGFKLRKGMPIGCKVTLRKERMWDFLDKLISVALPRVKDFKGLSPRSFDGRGNYAFGIAEQIVFPEIDYDKVDRIRGMDIIINTTAETDEEAFWLLSLLGLPIRSM", "soluble on expression in E. coli": "soluble"}
{"polymer_sequence": "MASYYEILDVPRSASADDIKKAYRRKALQWHPDKNPDNKEFAEKKFKEVAEAYEVLSDKHKREIYDRYGREGLTGTGTGPSRAEAGSGGPGFTFTFRSPEEVFREFFGSGDPFAELFDDLGPFSELQNRGSRHSGPFFTFSSSFPGHSDFSSSSFSFSPGAGAFRSVSTSTTFVQGRRITTRRIMENGQERVEVEEDGQLKSVTINGVPDDLALGLELSRREQQPSVTSRSGGTQVQQTPASCPLDSDLSEDEDLQLAMAYSLSEMEAAGKKPAGGREAQHRRQGRPKAQHQDPGLGGTQEGARGEATKRSPSPEEKASRCLIL", "soluble on expression in E. coli": "soluble"}
{"polymer_sequence": "MQPNDITFYQRFEADILAGHKTISIRDDSESHFKAGDILRVGRFEDNQYFCNIEVLSVSPITLDELTQPHAKQENMGLDELKEVIRGIYPNEIIFWVIQFSLKEYFNEEKCVREIIITDRKFN", "soluble on expression in E. coli": "soluble"}
{"polymer_sequence": "MDVQDIIGIALNLATAGSLAAKVLPGCGGKKKGKSVEGESTSSSKGNGAKTPEGKEGSEARTPSAAGSAAPTAPAEGAAPAAGAPAAVAPKPPMAATHDPNYQTLAGLDNNVFGKKDGAAPAAGGGGPAAPADQNAKAATHDPNYQTLAGLNNNVFDKKDGVGAPAAAPVAAGGDKKPIQPNDKNKKAATMDPNYQTLAAVGGDVFGADKKAGGGGGDKKPIQPNNKGQKAATMDPNYQTLAAVGGDVFGADKKKK", "soluble on expression in E. coli": "soluble"}
{"polymer_sequence": "MKFTEGKVKVVANDVKNLTQALEGYIQKAFFEGKDICASGGLVLKTTNKLAQKLSELKEILPQVKVISDEVKAKAEEIIKKAEETLQKGLEIKKRVKEFEAATNVYKKNPSEENKKRVETALNNLKYPEGAKLTLEDYVKNCNPYKKYLQKRVEQKA", "soluble on expression in E. coli": "not soluble"}
{"polymer_sequence": "MSLTIGFIFDLDGVITDTAKFHYQAWKALADSLGIPIDETFNETLKGISRMDSLDRILVHGHRENAFTPAEKEALAQQKNDHYVQLLEQLTTEDVLPGVVPLLQQAQARHIPCAVASASKNAPLILEKLGVRAYFATIVDPDSLSKGKPDPEIFLAAADSIGVLPQNAIGFEDAQSGIDGLKAAGIYAVGLSASQPLIGADMQVSEMTELSVDALLNREGHHHHHH", "soluble on expression in E. coli": "soluble"}
{"polymer_sequence": "MKIAVVGGGIVGLSTAFELSSRGHSVHVFDPNPASGASHFAGGMLAPAAEVQFQQDPLFPLMKRAGKLWPDMVRRVAQRTNLPTGYRTEGTLVVAADRADAEHLKQLRATQEAAGMDVRPITTRQARGLEPALGPRLSAAVHIPNDTQVAPRVFLTALLDALDDCGVGVIKEKITDLEPLYQQFD", "soluble on expression in E. coli": "not soluble"}
{"polymer_sequence": "MGSDKIHHHHHHMFDFKELEAFVWVVRLGSFRKGAAKLYLTQPSISDRITRLEDSVGESLLDRSARPVQPTLRGREFFTYAERLLEGREEAMRLFQDEESFSGTLRLGVIETIASSWCPTFMRRLAERYPQLTIELTVDISPFLHQRLAENDLDMLFAMDGVAPGLCAIQTPLCTYEMGMFAAPEMAATLQRGGPAAFAETAFISFSKQARPYRELVAYLTALGIDTPRIHRTSTLMTIMRMSIEGVGIGVLPVATVRDAVESGSLVRLTLEEPLPPMIYDAIWRSANYPSFCASVARLAKQCATDYAQDHGKLSSPASMKGYVDT", "soluble on expression in E. coli": "not soluble"}
{"polymer_sequence": "MMINRINLTDIRSFVLIARLGNFTKAAETLDVSRSHVSRQISSLEKQMGVTLLIRTTRTLRLTEAGKHFYHQCEQALHTIDQALLSAVDDVEKVQGEIKINCVGGYLGEVFLADIVNTFMQQYPDVSISLDFSSNRVDLIEEEFDIAFRMGSLEDSGFVAKKLLDIEMGTLASPKYLQQYGRPSHPKELQQHHCLTGSVRKWHFQSLVNKEHYDVSIKGNLQCKNGRVLVAGAIAGNGIIRVPLIYCQQELDDKKLVQVFEEWGIPTVDFSAIYHRDRYQPKRIRTFIDFVKQYSDSLFT", "soluble on expression in E. coli": "not soluble"}
